Cited source: ChEMBL document CHEMBL1153688

Biological target: Gastrin/cholecystokinin type B receptor (Mus musculus)
Sequence (P56481 whole entry): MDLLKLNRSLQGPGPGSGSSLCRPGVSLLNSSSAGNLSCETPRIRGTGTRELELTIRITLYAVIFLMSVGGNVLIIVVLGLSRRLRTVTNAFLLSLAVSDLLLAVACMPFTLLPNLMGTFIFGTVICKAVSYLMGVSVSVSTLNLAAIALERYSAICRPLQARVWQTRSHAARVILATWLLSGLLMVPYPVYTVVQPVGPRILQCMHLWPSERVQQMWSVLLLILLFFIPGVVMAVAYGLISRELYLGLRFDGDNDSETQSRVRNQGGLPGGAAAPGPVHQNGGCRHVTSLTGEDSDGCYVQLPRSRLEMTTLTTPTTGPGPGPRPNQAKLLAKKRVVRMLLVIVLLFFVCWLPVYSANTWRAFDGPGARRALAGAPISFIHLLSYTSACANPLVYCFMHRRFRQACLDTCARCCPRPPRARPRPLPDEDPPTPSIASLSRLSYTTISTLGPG
REPORTED METRIC: log10(IC50) (log10 of the value in nM)
# log10 transformed; quantity=IC50; unit=nM

1) Cc1cccc(NC(=O)NC2N=C(c3cccc(OCC(=O)NCCCOc4cccc(CN5CCCCC5)c4)c3)c3ccccc3N(C)C2=O)c1 (centres undefined) :: 3.23
2) Cc1cccc(NC(=O)NC2N=C(c3ccccc3)c3ccccc3N(CC(=O)NCC(=O)NCCSCc3csc(N=C(N)N)n3)C2=O)c1 (centres undefined) :: 3.83
3) Cc1cccc(NC(=O)NC2N=C(c3cccc(OCC(=O)NCCC(=O)NCCCOc4cccc(CN5CCCCC5)c4)c3)c3ccccc3N(C)C2=O)c1 (centres undefined) :: 2.88

// returns reported log10(IC50) for input `CN1C(=O)[C@H](NC(=O)Nc2cccc(C(=O)NCCCOc3cccc(CN4CCCCC4)c3)c2)N=C(c2ccccc2)c2ccccc21`
2.78

Would you mind telling me what log10(IC50) value was observed for Cc1cccc(NC(=O)NC2N=C(c3cccc(OCC(=O)NCCSCc4csc(N=C(N)N)n4)c3)c3ccccc3N(C)C2=O)c1 (centres undefined) ?
2.54

What log10(IC50) value was documented for this compound, Cc1cccc(NC(=O)NC2N=C(c3ccccc3)c3ccccc3N(CC(=O)NCCSCc3csc(N=C(N)N)n3)C2=O)c1 (centres undefined) ?
1.54

====

Molecular target: Cholecystokinin receptor (Mus musculus) (UniProt O08786+P56481)
Test: Ratio of IC50(gastrin) to IC50(CCK-A)
Assay type: protein assay
REPORTED METRIC: Ratio
// keep it numeric: no unit symbol after the value

Example entries begin here.
1) CN1C(=O)[C@H](NC(=O)Nc2cccc(CC(=O)NCCCCCC(=O)NCCCOc3cccc(CN4CCCCC4)c3)c2)N=C(c2ccccc2)c2ccccc21 :: 3.1
2) Cc1cccc(NC(=O)NC2N=C(c3ccccc3)c3ccccc3N(CC(=O)NCCCC(=O)NCCCOc3cccc(CN4CCCCC4)c3)C2=O)c1 (configuration not stated) :: 4.3
3) Cc1cccc(NC(=O)NC2N=C(c3ccccc3)c3ccccc3N(CC(=O)NCC(=O)NCCSCc3csc(N=C(N)N)n3)C2=O)c1 (configuration not stated) :: 2.1
4) Cc1cccc(NC(=O)NC2N=C(c3ccccc3)c3ccccc3N(CC(=O)NCC(=O)NCCCOc3cccc(CN4CCCCC4)c3)C2=O)c1 (configuration not stated) :: 0.5
5) Cc1cccc(NC(=O)NC2N=C(c3ccccc3)c3ccccc3N(CC(=O)NCCC(=O)NCCCOc3cccc(CN4CCCCC4)c3)C2=O)c1 (configuration not stated) :: 7
6) Cc1cccc(NC(=O)NC2N=C(c3cccc(OCC(=O)NCCCOc4cccc(CN5CCCCC5)c4)c3)c3ccccc3N(C)C2=O)c1 (configuration not stated) :: 16.1

Now examine the next entry.
Recall the recorded Ratio for Cc1cccc(NC(=O)NC2N=C(c3ccccc3)c3ccccc3N(CC(=O)NCCCCCC(=O)NCCCOc3cccc(CN4CCCCC4)c3)C2=O)c1 (configuration not stated) with Cholecystokinin receptor (Mus musculus) (UniProt O08786+P56481) and state it.
40.6

====

Target: Cholecystokinin receptor type A (Mus musculus, UniProt O08786)
Sequence (O08786 whole entry): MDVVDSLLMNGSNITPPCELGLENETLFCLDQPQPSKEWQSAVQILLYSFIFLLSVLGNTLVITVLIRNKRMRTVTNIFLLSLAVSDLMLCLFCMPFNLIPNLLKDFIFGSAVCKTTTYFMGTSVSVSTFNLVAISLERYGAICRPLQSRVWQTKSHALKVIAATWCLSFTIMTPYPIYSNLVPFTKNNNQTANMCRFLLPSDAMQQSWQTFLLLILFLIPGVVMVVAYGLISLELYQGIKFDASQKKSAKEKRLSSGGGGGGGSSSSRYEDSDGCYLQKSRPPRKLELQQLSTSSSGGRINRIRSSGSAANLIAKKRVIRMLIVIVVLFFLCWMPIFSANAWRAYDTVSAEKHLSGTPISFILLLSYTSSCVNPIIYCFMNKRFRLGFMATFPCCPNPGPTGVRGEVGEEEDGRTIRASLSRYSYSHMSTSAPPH
REPORTED METRIC: pIC50
The value called pIC50 is obtained by taking minus log10 of the concentration in mol/L.

Worked set:
1. Cc1cccc(NC(=O)NC2N=C(c3cccc(OCC(=O)NCCCC(=O)NCCCOc4cccc(CN5CCCCC5)c4)c3)c3ccccc3N(C)C2=O)c1 (configuration not stated) :: 5.03
2. Cc1cccc(NC(=O)NC2N=C(c3cccc(OCC(=O)NCCCC(=O)NCCSCc4csc(N=C(N)N)n4)c3)c3ccccc3N(C)C2=O)c1 (configuration not stated) :: 5.68
3. CN1C(=O)[C@H](NC(=O)Nc2cccc(CC(=O)NCCCC(=O)NCCSCc3csc(N=C(N)N)n3)c2)N=C(c2ccccc2)c2ccccc21 :: 6.48
4. Cc1cccc(NC(=O)NC2N=C(c3ccccc3)c3ccccc3N(CC(=O)NCC(=O)NCCSCc3csc(N=C(N)N)n3)C2=O)c1 (configuration not stated) :: 6.12

Entry under review: `CN1C(=O)[C@H](NC(=O)Nc2cccc(CC(=O)NCCCCCC(=O)NCCCOc3cccc(CN4CCCCC4)c3)c2)N=C(c2ccccc2)c2ccccc21` . Reported pIC50?
6.47

// query pIC50 value for entry `CN1C(=O)[C@H](NC(=O)Nc2cccc(CC(=O)NCCC(=O)NCCCOc3cccc(CN4CCCCC4)c3)c2)N=C(c2ccccc2)c2ccccc21`
6.72

If you can, please state the reported pIC50 value of `CN1C(=O)[C@H](NC(=O)Nc2cccc(C(=O)NCCCOc3cccc(CN4CCCCC4)c3)c2)N=C(c2ccccc2)c2ccccc21` .
5.60
